test system: bedstraw; experiment: Test B pre/postemergence bedstraw; type: in vivo, Galium aparine; details: Preemergence, Rate 125 g/ha; 0 is no effect, 10 is complete control
Bedstraw plant response rating (0 to 10 scale) listing for selected compounds.
property name: Bedstraw plant response rating (0 to 10 scale)

>>> numeric_readout("CC(C)N(C(=O)n1oc(=O)n(N(C)c2ccccc2)c1=O)c1ccc(F)cc1 [Compound 177]")
0
>>> numeric_readout("CC(C)N(C(=O)n1oc(=O)n(C(C)c2ccccc2)c1=O)c1ccc(Cl)cc1 (stereo not drawn) [Compound 133]")
0
>>> numeric_readout("CCN(Cc1ccncc1)C(=O)n1oc(=O)n(C(C)C)c1=O [Compound 189]")
0
>>> numeric_readout("CN(C(=O)n1oc(=O)n(Cc2ccccc2)c1=O)c1ccccc1 [Compound 153]")
0
>>> numeric_readout("CC(C)N(C(=O)n1oc(=O)n([C@@H](C)c2ccccc2)c1=O)c1ccccc1 [Compound 173]")
0
>>> numeric_readout("CC(C)N(C(=O)n1oc(=O)[nH]c1=O)c1ccc(F)cc1 [Compound 164]")
0

Source: patent US6737383B1
